Where do the numbers come from? From ChEMBL document CHEMBL1811785.

Could you please report measured Ratio Ki for the items listed next?
organism: Homo sapiens; test: Selectivity index, ratio of Ki for human recombinant CB1 receptor to Ki for human recombinant CB2 receptor
Format: numeric value only, no unit, no commentary.

# Ratio Ki of CCCCCn1cc(C(=O)NC23CC4CC(CC(C4)C2)C3)c(=O)c2cccc([N+](=O)[O-])c21 = 200

# Ratio Ki of CCCCCn1c(=O)c(C(=O)NC23CC4CC(CC(C4)C2)C3)c(O)c2cc(-c3ccco3)ccc21 = 18

# Ratio Ki of CCCCCOc1cccc2c(=O)c(C(=O)NC34CC5CC(CC(C5)C3)C4)c[nH]c12 = 4.3

# Ratio Ki of O=C(NC12CC3CC(CC(C3)C1)C2)c1c[nH]c2c(-c3ccccc3)cccc2c1=O = 45

# Ratio Ki of CCC1COc2cccc3c(=O)c(C(=O)NC45CC6CC(CC(C6)C4)C5)cn1c23 (stereo not given) = 145

# Ratio Ki of CCCCCn1c(=O)c(C(=O)NC23CC4CC(CC(C4)C2)C3)cc2ccccc21 = 157

====

target: Cannabinoid receptor 2 (Homo sapiens, UniProt P34972); experiment: Displacement of [3H]CP-55940 from human recombinant CB2 receptor expressed in HEK cells
Sequence (P34972 whole entry): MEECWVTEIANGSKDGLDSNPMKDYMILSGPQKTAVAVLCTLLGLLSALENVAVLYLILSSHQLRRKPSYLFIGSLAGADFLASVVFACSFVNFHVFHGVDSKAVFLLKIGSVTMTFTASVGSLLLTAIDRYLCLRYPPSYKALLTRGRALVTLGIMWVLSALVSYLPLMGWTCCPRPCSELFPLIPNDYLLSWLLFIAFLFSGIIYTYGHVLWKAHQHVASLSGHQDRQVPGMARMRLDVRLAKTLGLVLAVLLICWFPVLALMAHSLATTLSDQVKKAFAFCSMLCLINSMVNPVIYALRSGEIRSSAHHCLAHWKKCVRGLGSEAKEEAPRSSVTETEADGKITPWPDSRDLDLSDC
pKi: −log10 of the molar value.
Returns YES if the recorded pKi is greater than or equal to 8, and NO otherwise.

Prompt line: Dear colleague, could you confirm whether CCCCc1[nH]c2ccc(-c3ccco3)cc2c(=O)c1C(=O)NC12CC3CC(CC(C3)C1)C2 has pKi at or above 8?
Response line: NO

Prompt line: Dear colleague, could you confirm whether CCCCCn1cc(C(=O)NC23CC4CC(CC(C4)C2)C3)c(=O)c2cccc(C)c21 has pKi at or above 8?
Response line: YES

Prompt line: Dear colleague, could you confirm whether CCCCCn1cc(C(=O)NC23CC4CC(CC(C4)C2)C3)c(=O)c2cccc(OC)c21 has pKi at or above 8?
Response line: YES

Prompt line: Dear colleague, could you confirm whether O=C(NC12CC3CC(CC(C3)C1)C2)c1cnc2c(-c3ccccc3)cccc2c1O has pKi at or above 8?
Response line: NO

====

Measured Ki on Cannabinoid receptor 1 (Homo sapiens, UniProt P21554) follows.
Sequence (P21554 whole entry): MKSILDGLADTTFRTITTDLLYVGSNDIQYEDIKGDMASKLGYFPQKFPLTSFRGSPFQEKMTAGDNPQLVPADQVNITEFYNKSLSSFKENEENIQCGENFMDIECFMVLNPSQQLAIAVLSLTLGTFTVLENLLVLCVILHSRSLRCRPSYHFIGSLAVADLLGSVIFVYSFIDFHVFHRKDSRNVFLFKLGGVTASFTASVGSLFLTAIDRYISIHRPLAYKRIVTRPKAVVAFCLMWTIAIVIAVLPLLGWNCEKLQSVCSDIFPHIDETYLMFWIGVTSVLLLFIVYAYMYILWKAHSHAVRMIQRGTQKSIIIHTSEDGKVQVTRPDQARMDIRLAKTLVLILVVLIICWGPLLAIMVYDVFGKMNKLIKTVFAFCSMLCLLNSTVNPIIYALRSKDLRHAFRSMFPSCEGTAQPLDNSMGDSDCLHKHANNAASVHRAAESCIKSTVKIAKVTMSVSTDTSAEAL
API: value field is a number in nM; no unit string.

# Ki of CCCCCn1c(=O)c(C(=O)NC23CC4CC(CC(C4)C2)C3)cc2ccccc21 = 31.3

# Ki of CCCCCn1cc(C(=O)NC23CC4CC(CC(C4)C2)C3)c(=O)c2cccc([N+](=O)[O-])c21 = 200

# Ki of CCCCCn1c(=O)c(C(=O)NC23CC4CC(CC(C4)C2)C3)c(O)c2cc(-c3ccco3)ccc21 = 270

====

pKi: −log10 of the molar value.
Readout Label: pKi

Field pKi (Cannabinoid receptor 1 (Homo sapiens, UniProt P21554)), entry CCCCCn1cc(C(=O)NC23CC4CC(CC(C4)C2)C3)c(=O)c2cc(-c3ccco3)cc(OC)c21 : < 5.00

Field pKi (Cannabinoid receptor 1 (Homo sapiens, UniProt P21554)), entry CCCCCn1cc(C(=O)NC23CC4CC(CC(C4)C2)C3)c(=O)c2cc(Br)cc(OC)c21 : < 5.00

Field pKi (Cannabinoid receptor 1 (Homo sapiens, UniProt P21554)), entry CCCCc1[nH]c2ccc(Br)cc2c(=O)c1C(=O)NC12CC3CC(CC(C3)C1)C2 : < 5.00

====

organism: Homo sapiens; assay: Selectivity index, ratio of Ki for human recombinant CB1 receptor to Ki for human recombinant CB2 receptor
Could you please report measured Ratio Ki for the items listed next?

# Ratio Ki of CCCCc1[nH]c2ccc(-c3ccco3)cc2c(=O)c1C(=O)NC12CC3CC(CC(C3)C1)C2 = > 75

# Ratio Ki of CCCCCn1cc(C(=O)NC23CC4CC(CC(C4)C2)C3)c(=O)c2cccc(OC)c21 = > 16700

# Ratio Ki of CCCCc1[nH]c2ccc(Br)cc2c(=O)c1C(=O)NC12CC3CC(CC(C3)C1)C2 = > 8

# Ratio Ki of CCCCCn1cc(C(=O)NC23CC4CC(CC(C4)C2)C3)c(=O)c2cc(-c3ccccc3)cc(OC)c21 = > 23

# Ratio Ki of CCCCCn1cc(C(=O)NC23CC4CC(CC(C4)C2)C3)c(=O)c2cc(-c3ccco3)cc(OC)c21 = > 1180

# Ratio Ki of CCCCCn1cc(C(=O)NC23CC4CC(CC(C4)C2)C3)c(=O)c2cc(Br)cc(OC)c21 = > 437

# Ratio Ki of CCCCCn1cc(C(=O)NC23CC4CC(CC(C4)C2)C3)c(=O)c2cccc(C)c21 = > 2040

# Ratio Ki of COc1cccc2c(=O)c(C(=O)NC34CC5CC(CC(C5)C3)C4)c[nH]c12 = > 2.9

# Ratio Ki of CCCCCn1c(=O)c(C(=O)NC23CC4CC(CC(C4)C2)C3)c(O)c2cc(Br)ccc21 = > 340
